Hey, just so you know, these numbers are from PubChem BioAssay (NCI).

Tested on: MALME-3M melanoma
Test: NCI tumour cell line growth inhibition, 48 h
Readout Label: TGI

List TGI for every entry below, keeping the order given.
1. O=C(NCCCCCCCCCCCCNC(=O)c1cnc2ccccc2n1)c1cnc2ccccc2n1
2. CCOC(=O)C1(CC(=O)O)CCCC1=O (configuration not stated)
3. O=C1C=CC2(CCCCCCC2=O)CC1 (configuration not stated)
4. NC(CCSCC(F)(F)F)C(=O)O (configuration not stated)

1: > 100 µM; 2: > 100 µM; 3: > 100 µM; 4: > 100 µM

* * *

Tested on: UACC-257 melanoma
Experiment: NCI tumour cell line growth inhibition, 48 h
Readout Label: TGI

>>> reported_measurement("CC12Nc3ccccc3C1=C(c1ccccc1)CC1C(=O)OC(=O)C12 (stereo not given)")
"> 100 µM"
>>> reported_measurement("C#CCN(N=O)C(=O)NC(CCCCNC(=O)OCc1ccccc1)C(=O)OCc1ccccc1 (stereo not given)")
"79.5 µM"
>>> reported_measurement("COC(CNC(=O)CNC(=O)c1ccc(C(F)(F)F)cc1)OC")
"> 100 µM"
>>> reported_measurement("COc1ccc2[nH]c3cc4c(=O)c5cc(OC)ccc5[nH]c4cc3c(=O)c2c1")
"> 100 µM"

Quick one: TGI for "CCN(C(=O)N1CCN(c2cc3c(cc2F)c(=O)c(C(=O)O)cn3C2CC2)CC1)c1nc(-c2ccccc2)cs1" ?
7.61 µM

* * *

System: TK-10 renal
Test: NCI tumour cell line growth inhibition, 48 h
I'd appreciate it if you could supply TGI values for the items below.
Give bare numbers, in µM.

>>> reported_measurement("Cc1nnc(C[C@@H]2C=C(c3ccc(Cl)cc3)c3ccccc3-n3c(C)nnc32)o1")
27.1
>>> reported_measurement("Cc1cc(C)cc(Nc2nnc3n2S(=O)(=O)c2cc(C)c(Cl)cc2S3)c1")
38.5
>>> reported_measurement("O=CC(OC(=O)c1ccccc1)C(OC(=O)c1ccccc1)C(COC(c1ccccc1)(c1ccccc1)c1ccccc1)OC(=O)c1ccccc1 (configuration not stated)")
50.3
>>> reported_measurement("CCOC(=O)/C(=C/CC/C(C)=C/CC/C(C)=C/CCc1ccoc1)CC(=O)N1CCCCC1")
75.5
>>> reported_measurement("OC1(c2ccccc2)CC2CCC(C1)N2CCCC(O)(c1ccccc1)c1ccccc1 (configuration not stated)")
25.8

Take each entry in turn and give its TGI.
1. CC[C@H](C)[C@H](NC(=O)N(CCC#N)CCN(CCN(C(=O)N[C@@H](Cc1ccccc1)C(=O)OC)c1ccccc1)C(=O)N[C@H](C(=O)OC)C(C)C)C(=O)OC
2. CC/C=C\C[C@H]1C/C=C2/C(=O)C=C[C@H]2C/C=C\CCCC(=O)O1
3. COc1ccc(C(=O)/C=C/c2sc(Cl)nc2Cl)cc1
4. COc1ccc2c(c1)CC[C@@H]1[C@@H]2CC[C@]2(C)/C(=N/OCCN3CCCC3)CC[C@@H]12
5. CCC(=O)OC1CCn2c1nc1c2C(=O)C(C)=C(NC(C)=O)C1=O (configuration not stated)

1. 38.5
2. 8.01
3. 30.3
4. 16.9
5. 17

Parameters: items (list). Returns: TGI for each item.
1. Oc1ccc2ccccc2c1CCc1c(O)ccc2ccccc12
2. O=c1oc2ccc([N+](=O)[O-])cc2nc1/C=C(\O)c1ccccc1
3. Cc1cc(=O)oc2c(C3=NN(C=O)C(c4ccccc4)C3)c(O)ccc12 (configuration not stated)
4. Nc1nc(N)c2c(n1)NC(c1sc(Cl)nc1Cl)CC(c1ccccc1)=N2 (configuration not stated)
5. CC(=O)Nc1ccc(-c2nnc(SCC(=O)Nc3cccc(C)c3)o2)cc1
6. N#Cc1ncc(C(Cl)Cl)nc1Cl

32.5
93.4
87.9
24.1
29.2
3.82

# per-item lookup of TGI; items listed below
1. Cc1cccc(C(C)(C)C)c1NC(=O)C(C#N)C1=C(Cl)C(=O)c2ccccc2C1=O (configuration not stated)
2. O=C(Nc1ccc(OS(=O)(=O)c2ccc(F)cc2)cc1)C12CC3CC(CC(C3)C1)C2

[33.3, 62.6]

Query (compound): "COc1cc(/C=C/C(=O)c2cccc3ccccc23)cc(OC)c1OC" ; field requested: TGI
27.3

* * *

Tested on: MDA-MB-231 breast
Experiment: NCI tumour cell line growth inhibition, 48 h
Would you kindly list TGI for each of these compounds?
Numbers only, in µM.

>>> reported_measurement("COC(=O)C1OC(O[C@H]2CC[C@]3(C)[C@H]4CC=C5[C@@H]6CC(C)(C)CC[C@]6(C(=O)OC)CC[C@@]5(C)[C@]4(C)CC[C@H]3C2(C)C)C(O)C(O)C1O (some centres undefined)")
19.2

Take each entry in turn and give its TGI.
1. CN(C)c1ccc(/C=C/C(=O)c2cc(C(C)(C)C)c(O)c(C(C)(C)C)c2)cc1
2. CCCNC1=C2C[C@@H](C)C[C@@H](OC)[C@@H](OC(=O)CCCN)[C@H](C)/C=C(\C)[C@@H](OC(N)=O)[C@H](OC)/C=C\C=C(/C)C(=O)NC(=CC1=O)C2=O
3. Cc1cc(C)cc(Nc2nnc3n2S(=O)(=O)c2cc(C)c(Cl)cc2S3)c1

8.69
36.7
33.2

* * *

Test system: PC-3 prostate
Assay: NCI tumour cell line growth inhibition, 48 h
Kindly supply the reported TGI values for the records listed here.

>>> reported_measurement("O=c1oc2ccc([N+](=O)[O-])cc2nc1/C=C(\\O)c1ccccc1")
"> 100 µM"

Respectfully, I request TGI for each entry included below.
1. Cc1cc(S(=O)(=O)/N=C(\N)Nc2cccc(O)c2)c(SCc2ccccc2)cc1Cl
2. O=C(NC1CCN(Cc2ccccc2)CC1)c1cc(-c2cccnc2)nc2ccc(Cl)cc12

1: > 100 µM; 2: > 100 µM

Look at each compound and report its TGI.
1. C[C@@H]1CC[C@H]2[C@@H](C)C(O)O[C@@H]3O[C@]4(C)CC[C@@H]1[C@]32OO4 (some centres undefined)
2. COC(CNC(=O)CNC(=O)c1ccc(C(F)(F)F)cc1)OC
3. Cn1c(N/N=C/c2ccccc2)nc(-c2ccc3c(c2)OCO3)c(C#N)c1=O
4. Cc1cc(C)cc(Nc2nnc3n2S(=O)(=O)c2cc(C)c(Cl)cc2S3)c1
5. CN(C)c1ccc(/C=C/C(=O)c2ccc(Nc3nc(Nc4ccc(F)cc4)nc(Nc4ccc(F)cc4)n3)cc2)cc1
6. CC(=O)Nc1ccc(NC(=O)CC(=O)Nc2ccc(NC(C)=O)cc2)cc1

1. > 43.3 µM
2. > 100 µM
3. > 100 µM
4. 10.1 µM
5. 80.2 µM
6. > 100 µM

* * *

Test system: PC-3 prostate
Assay: NCI tumour cell line growth inhibition, 48 h
Quick rule for you: TGI at 30 µM or higher means criterion met, lower means criterion not met.

>>> assigned_category("N=c1c2sc3nc4ccccc4n3c2ncn1Cc1ccccc1")
"criterion met"

API: above_or_equal(metric=TGI, cutoff=30 µM) for item Cc1cc(=O)oc2c(C3=NN(C=O)C(c4ccccc4)C3)c(O)ccc12 (stereo not given)
criterion met

Thanks! And "CCOC(=O)Oc1cc2ccsc2c2c1c1ccccc1n2C(=O)OCC" ?
criterion met

Can you check "Cc1cc(F)c(C(=O)Nc2cccc(-c3nncn3C(C)C)n2)cc1-n1cnc(C2CC2)c1" next?
criterion met

Now this one: CC(=O)O[C@@H]1[C@H](OC2CCCCC2(c2ccccc2)c2ccccc2)O[N+]([O-])=CC12CCCCC2 (stereo not given in full)
criterion not met

Param item: "CCOC(=O)COc1cc(-c2ccccc2F)nc2cc3c(cc12)OCO3"
criterion met

* * *

Could you please report measured GI50 for the items listed next?
Test system: HL-60(TB) leukemia
Assay: NCI tumour cell line growth inhibition, 48 h

Here are 4 compounds together with their reported answers.
>>> reported_measurement("O=C(NC1CCN(Cc2ccccc2)CC1)c1cc(-c2cccnc2)nc2ccc(Cl)cc12")
"8270 nM"
>>> reported_measurement("C[C@@H](Nc1nc(N[C@H](C)C(F)(F)F)nc(-c2cccc(Cl)n2)n1)C(F)(F)F")
"> 100000 nM"
>>> reported_measurement("CC/C=C\\C[C@H]1C/C=C2/C(=O)C=C[C@H]2C/C=C\\CCCC(=O)O1")
"1740 nM"
>>> reported_measurement("CCN(C(=O)N1CCN(c2cc3c(cc2F)c(=O)c(C(=O)O)cn3C2CC2)CC1)c1nc(-c2ccccc2)cs1")
"1590 nM"

Report GI50 for C[C@H]1CCC/C=C/C2CC(OC(=O)CN(C)C)CC2C(OC(=O)CN(C)C)/C=C/C(=O)O1 (stereo not given in full) please.
682 nM

* * *

Could you please report measured TGI for the items listed next?
Test system: ACHN renal
Assay: NCI tumour cell line growth inhibition, 48 h

>>> reported_measurement("Clc1ccc(-c2cc(-c3ccccc3)nc(N3CCN(CCCNc4ccnc5cc(Cl)ccc45)CC3)n2)cc1")
"2.96 µM"

Dear reader, for each entry below, please note its TGI.
1. C[C@H]1CCC/C=C/C2CC(OC(=O)CN(C)C)CC2C(OC(=O)CN(C)C)/C=C/C(=O)O1 (stereo not given in full)
2. Cc1cccc2c(C3=C(c4cn(C)c5ccccc45)C(=O)NC3=O)cn(C)c12
3. CC12Nc3ccccc3C1=C(c1ccccc1)CC1C(=O)OC(=O)C12 (stereo not given)
4. CCOC(=O)c1oc2c(OC)ccc3c2c1CCC3
5. c1ccc(-c2cnc(SC(c3ccccc3)c3ccccc3)[nH]2)cc1
6. COC(=O)[C@H](CNC(=O)/C=C/c1ccc(OC(C)=O)c(OC(C)=O)c1)NC(=O)/C=C/c1ccc(OC(C)=O)c(OC(C)=O)c1
7. O=S(=O)(O)c1ccc2c(N=Nc3cccc4ccccc34)c(O)ccc2c1
8. O=C1/C(=C/c2cccnc2)SC(=S)N1Cc1ccco1

1: 11.9 µM; 2: > 25 µM; 3: > 100 µM; 4: > 100 µM; 5: > 100 µM; 6: > 100 µM; 7: > 100 µM; 8: > 48.9 µM

Using the record for "NCCOc1ccc(/C(=C(/Cl)c2ccccc2)c2ccccc2)cc1" , report its TGI.
27.2 µM
